Experiment: AUC in men plasma at 80 mg by LC/MS/MS analysis
Type: ADME, organism-based
Settings: male, human
observable: AUC (ng·h/mL)

> print(dat)
                      smiles.representation  observable  unit.symbol  endpoint.value
1  CCCc1nc2c(C)cc(-c3nc4ccccc4n3C)cc2n1Cc1ccc(-c2ccccc2C(=O)O)cc1         AUC      ng·h/mL            2470

* * *

Assay: Clearance in human plasma expressing CYP2C8*1/*1 polymorphism at 50 mg by LC/MS/MS analysis
Assay type: ADME, organism-based
observable: clearance (mL/min/kg)

> print(dat)
                      smiles.representation  endpoint.value
1  CCCCc1nc(Cl)c(CO)n1Cc1ccc(-c2ccccc2-c2nn[nH]n2)cc1            28.3

Origin of the recorded values: ChEMBL document CHEMBL3526037
